B1: POU domain, class 3, transcription factor 3, residues 320 to 388; numbered along this chain, P20264 (parent)
chain: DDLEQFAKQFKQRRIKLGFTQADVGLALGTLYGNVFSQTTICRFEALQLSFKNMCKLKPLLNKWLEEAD

Variants of: B1
Experiment: abundance fitness (aPCA) (normalised: wild type 0, dead -1); higher = more abundant; growth selection in yeast, the domain comes from the species named
Conditions: Homo sapiens
Would you kindly list abundance fitness for each of these variants?
Lab note: jot down the number only; don't add units.

Given the variant `R43T` , what is its reported abundance fitness?
-0.946

# abundance fitness lookup, item `N34H`
-0.094

# abundance fitness lookup, item `G29E`
-0.02

Suppose we examine the variant `V24R` ; what abundance fitness value has been reported?
-0.788

Item `F36A` has what recorded abundance fitness?
-0.068

Reported abundance fitness, variant `L31A` : ____
-0.299

Need abundance fitness, item `T30Y`
-0.459

Entry `G33W` : reported abundance fitness = ?
-0.722

I am curious: what abundance fitness value has been reported for `G25A` ?
0.161

If you can, please state the reported abundance fitness value of `T40Q` .
-0.102

Please look up its abundance fitness: `D23G`
-0.185

Fill in the blank: the reported abundance fitness of `R43L` is ____.
-0.858

Any idea what its abundance fitness is? The variant is `N34W`
-0.84

// returns reported abundance fitness for input `V24C`
-0.531

Which value of abundance fitness has been reported for `C42Q` in the records?
0.06

Requested read-out: abundance fitness. Entry: `T40A`
-0.386

Consider the variant `Q38H` and give its measured abundance fitness.
-0.524

Tell me the measured abundance fitness of `Y32E` , please.
-0.335

Query: abundance fitness; subject: `S37E`
-0.32

Which abundance fitness reading was recorded for the variant `L31R` ?
0.031

Please look up its abundance fitness: `C42H`
-0.006

// abundance fitness lookup, key: `R43M`
-0.62
